measuredOn: T1, porcine kidney DP IV, wild type (porcine, UniProt P22411 38-766, natively glycosylated (Asn279 among others, as seen in the crystal))
T1 construct: In the crystal a 2-2-2 symmetric tetramer (dimer of dimers); also called p wt DP IV; p wt
experimentNotes: MALDI-TOF MS, inhibition of DP IV-catalyzed truncation of the substrate GIP after preincubation with TFTSDY
reportedEndpoint: Ki

Record request: Ki value, item TFTSDY (also called glucagon5-10; T(5)-F-T-S-D-Y) [hexapeptide TFTSDY] 65.9 µM
